Numbers sourced from the supplement of paper PMC10065799.

Give phosphorylation enrichment for every item shown.
- Assay Target: Hck (UniProt P08631)
- Sequence (P08631 whole entry, looked up): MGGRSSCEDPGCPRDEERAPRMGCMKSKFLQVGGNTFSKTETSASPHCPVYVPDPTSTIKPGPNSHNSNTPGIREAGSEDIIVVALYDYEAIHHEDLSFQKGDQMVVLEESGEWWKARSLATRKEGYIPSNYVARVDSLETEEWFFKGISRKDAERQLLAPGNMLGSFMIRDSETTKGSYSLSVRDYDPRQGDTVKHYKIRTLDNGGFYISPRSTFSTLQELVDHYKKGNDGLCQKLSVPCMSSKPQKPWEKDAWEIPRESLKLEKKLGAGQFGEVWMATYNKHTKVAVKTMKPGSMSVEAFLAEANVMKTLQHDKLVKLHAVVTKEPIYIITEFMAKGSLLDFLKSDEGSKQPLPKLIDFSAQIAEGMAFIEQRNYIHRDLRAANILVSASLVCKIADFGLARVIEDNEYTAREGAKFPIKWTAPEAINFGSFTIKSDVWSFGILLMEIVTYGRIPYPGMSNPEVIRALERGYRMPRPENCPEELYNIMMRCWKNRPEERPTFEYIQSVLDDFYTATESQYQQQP
- Assay Text: phosphorylation enrichment, bacterial display (enrichment ratio); higher = better substrate or ligand; peptides without Tyr show the background;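 also: 11-residue human phosphosite peptides and single-mutation variants displayed on the E. coli surface, counted by deep sequencing, each peptide's frequency after selection divided by its frequency in the unselected input library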;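 also: frequency after pTyr selection over input frequency; kinase dosed for 20-30% of maximal phosphorylation in three min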

Field: example entries. Status: answers known.
[
  {
    "Record Sequence": "LEFAKYGSLRG [RET_Y809_V804L_YF]",
    "Assay Target": "Hck (UniProt P08631)",
    "Experimental Result": 0.567
  },
  {
    "Record Sequence": "PFVFFYSFLLK [PTEN_Y178_R173P_YF]",
    "Assay Target": "Hck (UniProt P08631)",
    "Experimental Result": 0.983
  },
  {
    "Record Sequence": "QAQMDYRRLQP [MPL_Y591]",
    "Assay Target": "Hck (UniProt P08631)",
    "Experimental Result": 0.367
  },
  {
    "Record Sequence": "QDGFSYPSRQM [LDLR_Y847_YF]",
    "Assay Target": "Hck (UniProt P08631)",
    "Experimental Result": 0.522
  }
]

Each of the following entries comes with a recorded value; kindly state phosphorylation enrichment for each.
1. KMKGDYYRSLA [YWHAG_Y130_Y133S]
2. NYAKMYCNPDA [KNL1_Y489]
3. EIIPFYGMSTY [FNDC3B_Y175]
4. QTPVLYTMLDH [MPZ_Y220_A221T]
5. YECKWYIPLTD [BCR_Y756_D752E]
6. PFSEPYADFGG [APBA1_Y187_YF]
7. SGDINYGQFAQ [PLCG1_Y210_T209N]

1. 0.444
2. 0.518
3. 1.1
4. 5.48
5. 0.585
6. 0.786
7. 0.65

Please state, for each entry, its recorded phosphorylation enrichment.
1. SEDSEYFRAFE [CASQ2_Y178_K180R_YF]
2. IRTGIYHGGEP [PIK3CA_Y361_V356I]
3. CPFNLYAEQLS [HGD_Y40_YF]

1. 0.524
2. 0.572
3. 0.772

* * *

- Tested on: c-Abl (mouse)
- Assay Text: phosphorylation enrichment, bacterial display (enrichment ratio); higher = better substrate or ligand; peptides without Tyr show the background
Provide the recorded phosphorylation enrichment for the entries that follow.

Worked cases, phosphorylation enrichment given:
[
  {
    "Record Sequence": "GADDSYYTARS [ZAP70_Y492]",
    "Assay Target": "c-Abl (mouse)",
    "phosphorylation enrichment": 0.938
  },
  {
    "Record Sequence": "REETTYLPLTS [ICAM3_Y527_S525T]",
    "Assay Target": "c-Abl (mouse)",
    "phosphorylation enrichment": 0.781
  },
  {
    "Record Sequence": "LAARFYNWVSF [FLT4_Y1231_YF]",
    "Assay Target": "c-Abl (mouse)",
    "phosphorylation enrichment": 0.988
  },
  {
    "Record Sequence": "GFIISYREEEQ",
    "Assay Target": "c-Abl (mouse)",
    "phosphorylation enrichment": 0.598
  },
  {
    "Record Sequence": "YDYKKYGKGLR [ZNF445_Y433]",
    "Assay Target": "c-Abl (mouse)",
    "phosphorylation enrichment": 0.48
  },
  {
    "Record Sequence": "AIKSFYAALID [RYR1_Y2426_M2423K]",
    "Assay Target": "c-Abl (mouse)",
    "phosphorylation enrichment": 0.719
  }
]

Hello, I would appreciate it if you could give phosphorylation enrichment for each entry below.
1. ISKKIYDPIHD [CTNNA3_Y614_T616P]
2. DIPIRYSITGV [CDH4_Y205]
3. FQKDVYDIPPS [NEDD9_Y177_YF]
4. GRQWNYVASMS [KLHL4_Y552]
5. GSQERDFELVE [TSC2_Y407_Y407D]
6. RQNRFYDAKVR [FKBP6_Y188]
7. IRKKYYRAILE [CHD7_Y1218_Q1214R]
8. SSQHRYSTPHT [RAF1_Y232_A237T]

[0.445, 0.641, 0.662, 0.719, 0.69, 0.658, 0.478, 0.448]

Hello, I would appreciate it if you could give phosphorylation enrichment for each entry below.
1. FGVTLYPNSGE [MEP1A_Y472_R476G]
2. ANNPLYKEATP [ITGB3_Y773_S778P]
3. TEQDPYNNIDR [MMUT_Y364_V368D]
4. KLLPEYPGILS [DHFR2_Y163_V166I]
5. SYCYRYCCAAR [SUMF1_Y344_R345C]

[0.794, 0.623, 0.658, 0.627, 0.622]

For each listed entry, give its phosphorylation enrichment.
1. CTTIHYNYLCN [TP53_Y234_M237L]
2. RNLDTYQKRLR [PLA2G2D_Y126]
3. EREFKYDAHNF [OAT_Y50_G51D_YF]
4. VIGRMYDYHVL [RPF2_Y109]
5. FMMMRYSQNIR [SDAD1_Y656_V660I]
6. RHPFFYAPELL [ALB_Y174_YF]
7. FTFTSYFMHWV [IGHV1-46_Y51_YF]
8. ITVCDYTNPCP [MYD88_Y276_T281P]

[0.479, 0.762, 0.645, 0.65, 0.61, 1.12, 1.05, 0.551]

The following sequences each have a reported value; give each one's phosphorylation enrichment.
1. LENSTYQFICV [CRB1_Y760_R764C_YF]
2. NPIGLYSAEIL [LDB3_Y202_T206I]

1: 1.12; 2: 0.568
